- Tested System: PI3Kβ (Homo sapiens, UniProt P42338)
- Construct: made in house
- Sequence (P42338 whole entry): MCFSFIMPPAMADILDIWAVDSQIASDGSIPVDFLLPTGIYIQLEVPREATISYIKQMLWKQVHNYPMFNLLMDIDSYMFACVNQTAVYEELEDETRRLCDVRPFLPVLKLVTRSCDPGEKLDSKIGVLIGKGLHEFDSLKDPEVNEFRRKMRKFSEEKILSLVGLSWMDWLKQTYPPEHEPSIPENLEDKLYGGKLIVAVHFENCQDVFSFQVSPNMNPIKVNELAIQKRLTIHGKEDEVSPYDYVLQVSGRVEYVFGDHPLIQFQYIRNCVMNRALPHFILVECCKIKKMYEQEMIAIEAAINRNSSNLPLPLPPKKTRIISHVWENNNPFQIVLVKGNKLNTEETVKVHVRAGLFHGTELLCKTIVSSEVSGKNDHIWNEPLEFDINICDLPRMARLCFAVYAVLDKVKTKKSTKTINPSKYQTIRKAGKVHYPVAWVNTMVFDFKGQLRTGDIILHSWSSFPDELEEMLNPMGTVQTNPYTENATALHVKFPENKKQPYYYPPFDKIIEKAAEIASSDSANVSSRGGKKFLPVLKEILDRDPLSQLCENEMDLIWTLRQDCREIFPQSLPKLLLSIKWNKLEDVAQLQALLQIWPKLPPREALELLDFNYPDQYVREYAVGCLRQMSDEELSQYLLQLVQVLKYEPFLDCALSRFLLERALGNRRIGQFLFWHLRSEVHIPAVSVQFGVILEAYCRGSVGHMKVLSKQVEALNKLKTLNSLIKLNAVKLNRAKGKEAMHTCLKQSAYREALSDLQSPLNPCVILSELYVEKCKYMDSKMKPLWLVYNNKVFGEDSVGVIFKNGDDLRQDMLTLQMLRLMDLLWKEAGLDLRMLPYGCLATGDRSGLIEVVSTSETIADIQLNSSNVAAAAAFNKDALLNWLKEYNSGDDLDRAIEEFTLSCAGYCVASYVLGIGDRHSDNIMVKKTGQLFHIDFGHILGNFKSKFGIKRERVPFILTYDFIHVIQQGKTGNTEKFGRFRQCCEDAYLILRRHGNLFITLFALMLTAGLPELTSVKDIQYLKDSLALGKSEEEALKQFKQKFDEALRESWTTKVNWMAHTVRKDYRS
- Sequence (P27986 whole entry partner): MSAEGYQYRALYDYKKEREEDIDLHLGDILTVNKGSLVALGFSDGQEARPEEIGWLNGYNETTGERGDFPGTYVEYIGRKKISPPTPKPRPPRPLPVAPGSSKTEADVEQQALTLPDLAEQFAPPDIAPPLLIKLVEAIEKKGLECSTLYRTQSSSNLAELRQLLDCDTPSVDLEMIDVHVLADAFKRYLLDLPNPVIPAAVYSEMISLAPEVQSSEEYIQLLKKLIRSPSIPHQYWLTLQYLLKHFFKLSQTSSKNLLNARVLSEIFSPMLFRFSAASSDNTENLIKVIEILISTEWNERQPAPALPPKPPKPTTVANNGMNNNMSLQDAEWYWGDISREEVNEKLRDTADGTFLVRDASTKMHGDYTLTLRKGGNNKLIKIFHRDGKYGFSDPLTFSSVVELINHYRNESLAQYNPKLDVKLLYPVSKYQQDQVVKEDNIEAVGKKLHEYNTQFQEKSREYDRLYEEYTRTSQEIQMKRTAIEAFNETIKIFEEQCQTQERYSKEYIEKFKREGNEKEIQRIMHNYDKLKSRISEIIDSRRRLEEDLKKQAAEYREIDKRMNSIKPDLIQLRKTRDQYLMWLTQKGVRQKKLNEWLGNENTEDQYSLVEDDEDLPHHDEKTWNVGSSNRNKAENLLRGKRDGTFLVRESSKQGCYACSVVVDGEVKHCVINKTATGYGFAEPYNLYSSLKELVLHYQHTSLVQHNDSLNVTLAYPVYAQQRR
- Protocol: HTRF in vitro profiling assay for PI3K inhibition, beta isoform
- Format: biochemical
- Condition Info: one experimental run or average of two or more runs; 200 pM enzyme, 100 uM ATP, 10 uM PIP2; read-out: P13KB PIC50 MEAN (converted)
Measure: IC50 (nM)
Give the quantity in nM, number only.

Below, each entry is followed by its recorded IC50 result.
Smiles Code	Units Label	IC50
O=C(O)c1cc(N2CCOCC2)cc2c1nc(C(F)(F)F)n2Cc1cccc2ccccc12	nM	1.26
Cc1c(Cn2c(C(F)F)nc3c(C(=O)O)cc(N4CCOCC4)cc32)cccc1C(F)(F)F	nM	0.2
Cc1c(Cl)cccc1Cn1c(C(F)F)nc2c(C(=O)O)cc(N3CCOCC3)cc21	nM	1.58

Task item: Any idea what its IC50 is? The compound is `Cc1nc2c(C(=O)O)cc(N3CCOCC3)cc2n1Cc1cccc2ccccc12`
Reply: 6.31
